System: catalytic domain (JH1, amino acids 826-1132) of human JAK2 (Homo sapiens, UniProt O60674)
Construct: catalytic domain (JH1, amino acids 826-1132) of human JAK2; FLAG (N)
Sequence (O60674 826-1132): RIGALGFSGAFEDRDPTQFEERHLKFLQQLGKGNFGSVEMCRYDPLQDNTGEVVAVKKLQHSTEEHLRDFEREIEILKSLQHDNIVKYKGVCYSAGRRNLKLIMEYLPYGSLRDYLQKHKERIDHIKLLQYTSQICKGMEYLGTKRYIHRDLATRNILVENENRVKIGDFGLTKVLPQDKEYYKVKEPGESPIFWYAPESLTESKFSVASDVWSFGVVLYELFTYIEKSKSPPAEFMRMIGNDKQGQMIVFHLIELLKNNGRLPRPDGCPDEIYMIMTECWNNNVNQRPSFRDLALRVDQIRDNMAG
Test Details: JAK2 LanthaScreen JH1 Binding Assay
Particulars: JAK2 JH1 (1.5 nM), 50 nM fluorescent JAK2-JH1 tracer, 2 hours at 25° C.; read-out: JH1 BIND
Property Label: IC50

Record excerpt, results attached:
Cn1ncc2cc(-c3c(-c4ccc(OC5CCOCC5)nc4)[nH]c4ncc5c(c34)n(C3CCCC3)c(=O)n5C)ccc21    > 1000 nM
COC(=O)N[C@H]1C[C@@H](n2c(=O)n(C)c3cnc4[nH]c(-c5cnn(C)c5)c(-c5ccc6c(cnn6C)c5)c4c32)C1    500 to 1000 nM
Cn1c(=O)n(C2CCCC2)c2c3c(-c4cc5cnccc5s4)c(C4CC4)[nH]c3ncc21    500 to 1000 nM

Shift focus to the following entry.
In plain terms, Cn1c(=O)n(C2CC3CCC2C3)c2c3c(-c4ccccc4)c(-c4cnn(CS(C)(=O)=O)c4)[nH]c3ncc21 (stereo not shown) has a documented IC50 of 10 to 100 nM

###

System: pseudo-kinase domain (JH2, amino-acids 536-812 with 3 surface mutations W659A, W777A, F794H) of human V617F mutant JAK2 (Homo sapiens, UniProt O60674, F794H/V617F/W659A/W777A)
Construct: pseudo-kinase domain (JH2, amino-acids 536-812 with 3 surface mutations W659A, W777A, F794H); His (C); Avi (biotinylated) (C)
Sequence (O60674 536-812 V617F/W659A/W777A/F794H): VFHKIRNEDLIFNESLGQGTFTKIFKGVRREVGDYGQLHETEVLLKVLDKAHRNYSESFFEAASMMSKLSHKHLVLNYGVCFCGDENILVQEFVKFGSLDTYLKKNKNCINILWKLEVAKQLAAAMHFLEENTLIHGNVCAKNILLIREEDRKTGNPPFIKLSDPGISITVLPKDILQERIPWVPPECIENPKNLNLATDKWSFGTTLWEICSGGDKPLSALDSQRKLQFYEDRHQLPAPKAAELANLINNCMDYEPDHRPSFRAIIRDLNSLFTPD
Test Details: JAK2 LanthaScreen JH2-V617F Binding Assay
Particulars: JAK2 JH2-V617F (0.26 nM), 50 nM Fluorescent JAK2-JH2 Tracer, 1 hour at 25° C.; read-out: JH2 BIND V617F
Protocol: Example C. JAK2 LanthaScreen JH2-V617F Binding Assay JAK2 JH2-V617F binding assay utilizes pseudo-kinase domain (JH2, amino-acids 536-812 with 3 surface mutations W659A, W777A, F794H) of human V617F mutant JAK2 expressed as C-terminal His-Avi-tagged, biotinylated protein in a baculovirus expression system (BPS Bioscience, Catalog #79498). […] After incubation for 1 hour at 25° C., LanthaScreen signals were read on a PHERAstar FS plate reader (BMG LABTECH). […]
Property Label: IC50

Cn1ncc2cc(-c3c(C4=CCCCC4)[nH]c4ncc5c(c34)n(C3CCCC3)c(=O)n5C)ccc21 [Example 69]    ≤ 10 nM
CC(C)n1c(=O)n(C)c2cnc3[nH]c(Cc4ccc(C#N)cc4)c(-c4ccc5c(cnn5C)c4)c3c21 [Example 96]    > 1000 nM
CCN1CCN(c2ccc(-c3cc4c(ncc5c4n(Cc4cnn(C)c4)c(=O)n5C)[nH]3)cc2)CC1 [Example 16]    > 1000 nM
Cn1ncc2cc(-c3c(S(C)(=O)=O)[nH]c4ncc5c(c34)n(C3CCCC3)c(=O)n5C)ccc21 [Example 99]    500 to 1000 nM

Lab book: IC50 of COc1ccc(-c2c(-c3ccc(CN4CCC(S(C)(=O)=O)CC4)cc3)[nH]c3ncc4c(c23)n(CC(C)C)c(=O)n4C)cc1 [Example 20] noted as ≤ 10 nM

What the record says about COCCn1cc(-c2[nH]c3ncc4c(c3c2-c2ccc3c(cnn3C)c2)n(C2CCCC2)c(=O)n4C)cn1 [Example 54] : IC50 is ≤ 10 nM

// field: IC50; key: Cn1c(=O)n(C2CC3CCC2C3)c2c3c(-c4ccccc4)c(-c4cnn(CS(C)(=O)=O)c4)[nH]c3ncc21 (stereo not shown) [Example 45] ; value = 10 to 100 nM

Value of measured IC50 for the entry COC(=O)N[C@H]1C[C@@H](n2c(=O)n(C)c3cnc4[nH]c(-c5cnn(C)c5)c(-c5ccc6c(cnn6C)c5)c4c32)C1 [Example 104] : ≤ 10 nM

# IC50 (molecule: COc1ccc(-c2c(-c3ccc(CN4CCC(S(C)(=O)=O)CC4)cc3)[nH]c3ncc4c(c23)n(C2CCCCC2)c(=O)n4C)cc1 [Example 19] ) is ≤ 10 nM

Reported IC50 of CC(C)n1c(=O)n(C)c2cnc3[nH]c(-c4cnn(CC(C)(C)O)c4)c(-c4cc5cnccc5s4)c3c21 [Example 75] : ≤ 10 nM

Lookup result for CN(C)C(=O)c1ccc(-c2[nH]c3ncc4c(c3c2-c2ccc3c(cnn3C)c2)n(C2CCCC2)c(=O)n4C)cc1 [Example 89] ; measured IC50: ≤ 10 nM

Entry CC(C)n1c(=O)n(C)c2cnc3[nH]c(-c4ccc(CN5CCC(S(C)(=O)=O)CC5)cc4)c(-c4ccccc4)c3c21 [Example 18] , IC50 reported as ≤ 10 nM

###

System: catalytic domain (JH1, amino acids 826-1132) of human JAK2 (Homo sapiens)
Construct: catalytic domain (JH1, amino acids 826-1132) of human JAK2; FLAG (N)
Test Details: JAK2 LanthaScreen JH1 Binding Assay
Particulars: JAK2 JH1 (1.5 nM), 50 nM fluorescent JAK2-JH1 tracer, 2 hours at 25° C.; read-out: JH1 BIND
pIC50: −log10 of the molar value.
Property Label: pIC50

Some solved cases for reference:
Cn1cc(-c2[nH]c3ncc4c(c3c2-c2ccc(C#N)cc2)n(C2CCC3(CC2)CN(S(C)(=O)=O)C3)c(=O)n4C)cn1    6.00 to 6.30
CC(C)n1c(=O)n(C)c2cnc3[nH]c(-c4cnn(CC(C)(C)O)c4)c(-c4cc5cnccc5s4)c3c21    6.00 to 6.30
Cn1cc(-c2[nH]c3ncc4c(c3c2-c2ccc3c(cnn3C)c2)n([C@H]2C[C@@H](CC#N)C2)c(=O)n4C)cn1    6.30 to 7.00
Cn1c(=O)n([C@H]2CCCOC2)c2c3c(-c4ccccc4)c(-c4ccc(CN5CCC(S(C)(=O)=O)CC5)cc4)[nH]c3ncc21    6.30 to 7.00
Cn1c(=O)n(-c2ccc3occc3c2)c2c3cc(-c4ccc(CN5CCC(S(C)(=O)=O)CC5)cc4)[nH]c3ncc21    7.00 to 8.00

For reference, reported pIC50 for CCN1CCN(c2ccc(-c3cc4c(ncc5c4n(Cc4cnn(C)c4)c(=O)n5C)[nH]3)cc2)CC1 stands at 6.00 to 6.30

pIC50 in this record for Cn1c(=O)n(C)c2c3c(-c4ccccc4)c(CCO)[nH]c3ncc21 : < 6.00

Kindly note the recorded pIC50 for Cn1c(=O)n(C2CCCCC2)c2c3cc(-c4ccc(CN5CCC(S(C)(=O)=O)CC5)cc4)[nH]c3ncc21 , which is 7.00 to 8.00

Record Cn1c(=O)n(C2CCCCC2)c2c3cc(-c4cnn(CS(C)(=O)=O)c4)[nH]c3ncc21 . Reported pIC50: 7.00 to 8.00

###

System: pseudo-kinase domain (JH2, amino-acids 536-812 with 3 surface mutations W659A, W777A, F794H) of human Wild Type JAK2 (Homo sapiens, UniProt O60674, F794H/W659A/W777A)
Construct: pseudo-kinase domain (JH2, amino-acids 536-812 with 3 surface mutations W659A, W777A, F794H); His (C); Avi (biotinylated) (C)
Sequence (O60674 536-812 W659A/W777A/F794H): as the sequence (O60674 536-812 V617F/W659A/W777A/F794H) above, with F82V counted along it
Test Details: JAK2 LanthaScreen JH2-WT Binding Assay
Particulars: JAK2 JH2-WT (0.145 nM), 50 nM Fluorescent JAK2-JH2 Tracer, 1 hour at 25° C.; read-out: JH2 BIND WT
Property Label: IC50

Answered cases to consult:
Cn1ncc2cc(-c3c(C(=O)NC4CC4)[nH]c4ncc5c(c34)n(C3CCCC3)c(=O)n5C)ccc21    0.01 to 0.1 µM
CC(C)n1c(=O)n(C)c2cnc3[nH]c(-c4cnn(CC(C)(C)O)c4)c(-c4cc5cnc(N6CCNCC6)cc5s4)c3c21    ≤ 0.01 µM
CC(C)n1c(=O)n(C)c2cnc3[nH]c(-c4cnn(CC(C)(C)O)c4)c(-c4cnc(N5CCOCC5)s4)c3c21    0.01 to 0.1 µM
CC(C)n1c(=O)n(C)c2cnc3[nH]c(-c4cnn(CC(C)(C)O)c4)c(-c4ccc5c(c4)CCCO5)c3c21    ≤ 0.01 µM
Cn1ncc2cc(-c3c(-c4cnn(Cc5ccncc5)c4)[nH]c4ncc5c(c34)n(C3CCCC3)c(=O)n5C)ccc21    ≤ 0.01 µM

Quick note, IC50 for CC(C)n1c(=O)n(C)c2cnc3[nH]c(-c4ccc(CN5CCC(S(C)(=O)=O)CC5)cc4)c(-c4cnn(Cc5ccc(C(=O)O)cc5)c4)c3c21 landed at ≤ 0.01 µM

Record Cn1c(=O)n(C2CCCOC2)c2c3cc(-c4ccc(CN5CCC(S(C)(=O)=O)CC5)cc4)[nH]c3ncc21 (stereo not shown) . Reported IC50: 0.1 to 0.5 µM

# compound CC(C)n1c(=O)n(C)c2cnc3[nH]c(-c4cnn(C)c4)c(C#Cc4ccccc4)c3c21 ; its IC50 = 0.1 to 0.5 µM

Input COc1ccc(-c2c(-c3ccc(CN4CCC(S(C)(=O)=O)CC4)cc3)[nH]c3ncc4c(c23)n(CC(C)C)c(=O)n4C)cc1 . Output IC50: ≤ 0.01 µM

The recorded IC50 for entry CC(C)n1c(=O)n(C)c2cnc3[nH]c(-c4cnn(CC(C)(C)O)c4)c(-c4ccn5cncc5c4)c3c21 equals ≤ 0.01 µM

Quick note, IC50 for COc1ccc(-n2c(=O)n(C)c3cnc4[nH]c(-c5ccc(CN6CCC(S(C)(=O)=O)CC6)cc5)cc4c32)cc1 landed at 0.01 to 0.1 µM

Input COc1ccc(-c2[nH]c3ncc4c(c3c2-c2ccc3c(cnn3C)c2)n(C2CCCC2)c(=O)n4C)cn1 . Output IC50: ≤ 0.01 µM

Memo: Cn1cc(-c2[nH]c3ncc4c(c3c2-c2ccc(C#N)cc2)n(C2CCC3(CC2)CN(S(C)(=O)=O)C3)c(=O)n4C)cn1 , reported IC50: ≤ 0.01 µM

Sample Cn1ncc2cc(-c3c(C4CC4)[nH]c4ncc5c(c34)n(C3CCCC3)c(=O)n5C)ccc21 ; IC50 observed: ≤ 0.01 µM

The measured IC50 associated with COc1ccc(-c2[nH]c3ncc4c(c3c2-c2ccc3c(cnn3C)c2)n(C2CCOCC2)c(=O)n4C)cn1 reads ≤ 0.01 µM

// sample CS(=O)(=O)C1CCN(Cc2ccc(-c3cc4c(ncc5c4n(-c4ccccc4)c(=O)n5CCO)[nH]3)cc2)CC1 , its IC50 was > 1 µM
